Measured GI50 of individual entries
# Test system: M14 melanoma
# method: NCI tumour cell line growth inhibition, 48 h
Where a SMILES comes first, the peptide text is derived from it. [ ]: non-standard residue; d: D form. 2Nal = N[CH](Cc1ccc2ccccc2c1)C(=O)O

O=S(=O)(Nc1ccc2ccccc2c1)c1ccc(-c2cnc(C3CC3)o2)cc1 : 0.701 µM
CC(C)C(NC(=O)C(CCCCN)NC(=O)C(Cc1c[nH]c2ccccc12)NC(=O)C(Cc1ccc(O)cc1)NC(=O)C(CS)NC(=O)C(N)Cc1ccc2ccccc2c1)C(=O)NC(CS)C(=O)NC(C(N)=O)C(C)O (stereo not given) (H-[2Nal]CYWKVCT-NH2; configuration not given here) : > 100 µM
CCCN1C(=O)/C(=C/c2ccc(O)cc2)SC1=Nc1ccc(OC)cc1 : 26.8 µM
CCOc1c(C#N)c2c(N)ncnc2n1C1OC(CO)C(O)C1O (stereo not given) : 1.92 µM

Exercise: I am curious: what GI50 value has been reported for O=c1c(-c2ccc(O)cc2)coc2cc(OC3OC(CO)C(O)C(O)C3O)cc(O)c12 (stereo not given) ?
Key: > 100 µM

----------
# Test system: SF-268 CNS
# method: NCI tumour cell line growth inhibition, 48 h
measurement_label: TGI (µM)
Please respond with the number in µM and leave the unit unwritten.

CCCCCCN(C)Cc1ccc(OCCOc2ccc(CN(C)CCCCCC)cc2)cc1 : 11.8

Alright, here's another molecule for you.
Exercise: If you can, please state the reported TGI value of C=C1CC(CN2CCC(=O)NC2=O)(c2ccccc2)OC1=O (centres undefined) .
Key: 50.4

----------
# Tested on: EKVX NSCLC
# method: NCI tumour cell line growth inhibition, 48 h
Property: TGI; scope: individual compounds

Reference set, count: 3
Cc1nc(Nc2ccccc2)sc1C(=O)CC(=O)C(=O)NC12CC3CC(CC(C3)C1)C2 : 73 µM
O=C(O)Cn1c2c(c3c(O)cccc31)C(=O)c1ccccc1-2 : > 100 µM
Cn1c(=O)oc2cc(Br)ccc21 : > 100 µM

Exercise: Given the entry NC(=S)NS(=O)(=O)c1ccc(F)cc1F , report its measured TGI.
Key: > 100 µM

Exercise: Then CC(=O)[O-].[O-]c1c(Cl)cc(Cl)cc1/C=N/Nc1ccccn1.[Zn+2] ?
Key: 9.01 µM

Exercise: Another compound to look at: CCC1=NC(C(F)(F)F)(C(F)(F)F)N=C(/N=C(/N)N(C)C(C(C)C)P(=O)(OC(C)C)OC(C)C)O1 (stereo unspecified)
Key: > 100 µM

Exercise: Try this compound too: Nc1c(N2CCCCC2)c(=O)nc2[nH]/c(=C\c3ccccc3)c(=O)n12
Key: > 100 µM

Exercise: Likewise for CN(O)C(=S)c1ccccc1 ?
Key: > 95.2 µM

Exercise: Now give it for COc1ncnc2c1cnn2Cc1cn(CCCCO)nn1 too.
Key: > 100 µM

Exercise: Also, CC1(C)CN=C(Nc2ccc(F)c(F)c2)S1 please.
Key: > 100 µM

Exercise: What do you have for C=C1CCC2C3(C)COC(c4ccc(Cl)cc4)OC3CCC2(C)C1/C=C/C1=CCOC1=O (stereo unspecified) ?
Key: 29.8 µM

----------
# Tested on: NCI-H226 lung
# method: NCI tumour cell line growth inhibition, 48 h
The entries below are paired with their reported TGI.
Entry rule: numbers only, all in µM.

CCc1nc2cc(/C=C/C(=O)NO)ccc2c(=O)n1CCc1ccc(F)cc1 : 4.59
O=[N+]([O-])c1cccc2nc3ccccc3c(NCCCN3CCCCC3)c12 : 0.0553
CC(=O)Oc1c(C)c2c(c3ccccc13)OC(C)(C)C2 : 40.7

Consider the additional compound presented here.
Exercise: For the record CN(C)CCNC(=O)c1cccc2ncc(-c3ccccc3)nc12 , what value of TGI is listed for NCI-H226 lung?
Key: 31.3
